- STUDY SYSTEM: Avi-KRAS WT (1-169) GppNHp/RAF1 RBD-3xFLAG (52-151) (Homo sapiens)
- Construct: Avi-KRAS WT (1-169)
- Sequence (P01116 1-169 isoform P01116-2): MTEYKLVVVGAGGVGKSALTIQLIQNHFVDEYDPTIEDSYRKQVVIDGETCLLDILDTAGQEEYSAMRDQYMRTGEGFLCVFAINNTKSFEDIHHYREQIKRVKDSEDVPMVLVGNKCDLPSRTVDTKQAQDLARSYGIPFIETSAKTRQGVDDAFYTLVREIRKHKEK
- TEST SUMMARY: Raf1-KRAS WT-GppNHP disruption HTRF assay (Biological Example 1)
- Assay type: binding
- CONDITION LABEL: KRAS WT-GppNHp/RAF1 RBD HTRF
RECORDED METRIC: IC50

Example molecules with recorded IC50:
CC(=O)N1CC[C@@H](N(C)c2nc(OC[C@@]34CCCN3C[C@H](F)C4)nc3c(F)c(-c4ccc(F)c5oc(N)c(C#N)c45)c(C(F)(F)F)cc23)[C@H]1C	100 to 1000 nM
CCC(=O)N1CC[C@@H](N(CC)c2nc(OC[C@@]34CCCN3C[C@H](F)C4)nc3c(F)c(-c4ccc(F)c5sc(N)c(C#N)c45)c(C(F)(F)F)cc23)C1	100 to 1000 nM
C[C@@H]1CC[C@@H](O)CN1c1nc(OC[C@@]23CCCN2C[C@H](F)C3)nc2c(F)c(-c3ccc(F)c4sc(N)c(C#N)c34)c(C(F)(F)F)cc12	100 to 1000 nM
CCN(c1nc(OC[C@@]23CCCN2C[C@H](F)C3)nc2c(F)c(-c3ccc(F)c4sc(N)c(C#N)c34)c(C(F)(F)F)cc12)[C@H]1C[C@H]2COC(=O)N2C1 (atropisomer, axis not shown; (aS))	< 100 nM

For the next question, use this molecule.
Query block: Please provide the recorded IC50 for N#Cc1c(N)sc2c(F)ccc(-c3c(C(F)(F)F)cc4c(N5CC6OCC5C6O)nc(OC[C@@]56CCCN5C[C@H](F)C6)nc4c3F)c12 (some centres unmarked) , tested on Avi-KRAS WT (1-169) GppNHp/RAF1 RBD-3xFLAG (52-151) (Homo sapiens).
Result block: 100 to 1000 nM
